TARGET_ENTITY: T1, Human CD73 on cells (MDA-MB-231, Jurkat CD73 knock-in, NCI-H322) (human, UniProt P21589 27-549)
T1 sequence: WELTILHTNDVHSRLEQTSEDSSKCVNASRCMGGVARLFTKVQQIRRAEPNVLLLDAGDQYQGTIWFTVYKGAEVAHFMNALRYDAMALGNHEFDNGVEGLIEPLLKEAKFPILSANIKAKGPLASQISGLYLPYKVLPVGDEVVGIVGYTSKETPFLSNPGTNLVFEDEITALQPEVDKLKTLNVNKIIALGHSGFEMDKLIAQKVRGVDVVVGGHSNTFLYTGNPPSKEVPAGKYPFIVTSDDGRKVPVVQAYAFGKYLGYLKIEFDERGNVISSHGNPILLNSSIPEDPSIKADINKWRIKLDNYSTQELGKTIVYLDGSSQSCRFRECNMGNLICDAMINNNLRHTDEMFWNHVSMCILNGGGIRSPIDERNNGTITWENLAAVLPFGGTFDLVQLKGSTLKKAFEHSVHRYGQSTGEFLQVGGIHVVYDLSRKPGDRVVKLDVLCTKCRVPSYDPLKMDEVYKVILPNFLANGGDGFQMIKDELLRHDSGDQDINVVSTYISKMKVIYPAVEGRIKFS
TEST_NAME: cell-based or functional assay
READOUT_TYPE: Internalization, MDA-MB-231, 1/EC50 (nM) (nM⁻¹)
Give your result in nM⁻¹ as a bare value.

CD730008 (antibody, IgG1, V domains shown, IgG1-TM format; also called CD730008 antibody) VH: EVQLLETGGGLVQPGGSLRLSCAASGFTFSSYAMSWVRQAPGKGLEWVSAISGSGGSTYYADSVKGRFTISRDNSKNTLYLQMNSLRAEDTAVYYCARGNYGNLDHWGKGTLVTVSS VL: QSVLTQPPSVSVSPGQTASITCSGDKVGDKYASWYQQKPGQSPVLVIYQDRKRPSGIPERFSGSNSGNTATLTISGTQPMDEADYYCQAWDSSHWVFGGGTKLTVL; 0
CD730021 (antibody, V domains shown, IgG1-TM format; also called CD730021 antibody) VH: QVQLQESGPGLVRPSETLSLTCTVSGGSISSSSYYWAWVRQSPGKGLEWIGNIYYRGSTYYNPSLKSRVTMSVDMSKHQFSLKLSSLNAADTAVYYCASLYSGTYVFDYWGRGTLVTVSS VL: QSVLTQPPSASGTPGQRVTISCSGSRPNIGGNTVNWYQQLPGAAPKLLIYSNSQRPSGVPDRFSGSKYGTSASLAISGLQSDDEADYYCGTWDDSLNGPVFGRGTKLTVL; 0.0011

Ask: Using the record for CD730042 (antibody, V domains shown, IgG1-TM format; also called CD730042 antibody) VH: GVQLVQSGGGLVQPGGSLRLSCAASGFTFSSYGMHWVRQAPGKGLEWVAVISYDGSIKYYADSVKGRFTISRDDSKNALYLQMNSLRAEDTAVYYCSTLSGSYGYFDYWGRGTLVTVSS VL: QSVLTQPASVSGSPGQSITISCAGTSSDVGGYNYVSWYQQHPGKAPKLMIYEGSKRPSGVSNRFSGSKSGNTASLTISGLQAEDEADYYCSSYTTRSTRVFGGGTKLTVL , state its measured Internalization, MDA-MB-231, 1/EC50 (nM).
Reply: 0
